# Lookup of reported BP keyed by entry
# System: Rattus norvegicus
# METHOD_SUMMARY: Antihypertensive activity in renal hypertensive rats 1 hr after oral administration (10 mg/Kg)
# Assay type: functional

{"MOLECULE": "CCOC(=O)CC(c1nnn[nH]1)c1c[nH]c2cccc(Cl)c12 (stereo not given)", "BP": "-4 mmHg"}
{"MOLECULE": "NCC(c1nnn[nH]1)c1c[nH]c2ccccc12 (stereo not given)", "BP": "8 mmHg"}
{"MOLECULE": "COC(=O)C(CN)c1c[nH]c2ccc(Br)cc12.Cl (stereo not given)", "BP": "-6 mmHg"}
{"MOLECULE": "COc1ccc2[nH]cc(C(CN)c3nnn[nH]3)c2c1 (stereo not given)", "BP": "-2 mmHg"}
{"MOLECULE": "COC(=O)CC(CN)c1c[nH]c2ccc(OC)cc12 (stereo not given)", "BP": "-14 mmHg"}
{"MOLECULE": "COC(=O)C(CN)c1c[nH]c2ccc(Cl)cc12.Cl (stereo not given)", "BP": "-8 mmHg"}
{"MOLECULE": "COC(=O)C(CN)c1c[nH]c2ccc(OC)cc12.Cl (stereo not given) [INDORENATE HYDROCHLORIDE]", "BP": "-85 mmHg"}
{"MOLECULE": "CCOC(=O)CC(c1nnn[nH]1)c1c[nH]c2ccccc12 (stereo not given)", "BP": "-4 mmHg"}
{"MOLECULE": "NCC(C(=O)O)c1c[nH]c2cc(Cl)ccc12 (stereo not given)", "BP": "-4 mmHg"}
{"MOLECULE": "CCOC(=O)CC(CNC(C)=O)c1c[nH]c2ccccc12 (stereo not given)", "BP": "-8 mmHg"}
{"MOLECULE": "COC(=O)C(CN)c1cn(C)c2ccc(OC)cc12.Cl (stereo not given)", "BP": "-5 mmHg"}
{"MOLECULE": "COC(=O)C(c1c[nH]c2ccc(OC)cc12)C(C)N (stereo not given)", "BP": "-6 mmHg"}
{"MOLECULE": "CCOC(=O)C(CN)c1c[nH]c2ccc(Br)cc12.Cl (stereo not given)", "BP": "-3 mmHg"}
{"MOLECULE": "CCOC(=O)C(CNC(C)=O)c1cn(C(=O)OCC)c2ccccc12 (stereo not given)", "BP": "-3 mmHg"}
{"MOLECULE": "COc1ccc2[nH]cc(C(CNC(C)=O)C(=O)O)c2c1 (stereo not given)", "BP": "-16 mmHg"}
{"MOLECULE": "CCCCCOC(=O)C(CN)c1c[nH]c2ccc(OC)cc12.Cl (stereo not given)", "BP": "-7 mmHg"}
{"MOLECULE": "CCOC(=O)C(C)(N)Cc1c[nH]c2ccc(O)cc12 (stereo not given)", "BP": "-2 mmHg"}
{"MOLECULE": "COC(=O)C(N)Cc1c[nH]c2ccc(OC)cc12 (stereo not given)", "BP": "-7 mmHg"}
{"MOLECULE": "CCOC(=O)C(N)Cc1c[nH]c2ccc(O)cc12 (stereo not given)", "BP": "-14 mmHg"}
{"MOLECULE": "COC(=O)C(CN)c1c(C)[nH]c2ccc(OC)cc12.Cl (stereo not given)", "BP": "2 mmHg"}
{"MOLECULE": "CCOC(=O)CC(c1nnn[nH]1)c1c[nH]c2cc(Cl)ccc12 (stereo not given)", "BP": "-5 mmHg"}
{"MOLECULE": "CCCOc1ccc2[nH]cc(C(CN)C(=O)OC)c2c1.Cl (stereo not given)", "BP": "-6 mmHg"}
{"MOLECULE": "CCOC(=O)C(CNC(C)=O)c1cn(C(=O)OCC)c2cccc(Cl)c12 (stereo not given)", "BP": "-8 mmHg"}
{"MOLECULE": "NCC(CC(=O)O)c1c[nH]c2ccccc12 (stereo not given)", "BP": "-11 mmHg"}
{"MOLECULE": "COC(=O)CC(CN)c1c[nH]c2cc(Cl)ccc12 (stereo not given)", "BP": "2 mmHg"}
